Kindly state TGI for each of the entries shown.
- Test system: NCI/ADR-RES ovarian
- measurement.notes: NCI tumour cell line growth inhibition, 48 h

>  <compound>
CN1CC(c2ccccc2)C(O)(C2(c3ccccc3)CN(C)CC(c3ccccc3)C2=O)C(c2ccccc2)C1 (stereo not given)

>  <TGI>
> 100 µM

$$$$

List TGI for every entry below, keeping the order given.
1. CC[C@@]1(OC(=O)CN(C)C)C(=O)OCc2c1cc1n(c2=O)Cc2cc3c(N)cccc3nc2-1
2. c1ccc2c(c1)nc1n2CSCC1
3. Cc1cc(-c2nnc(/C=C/c3ccc4c(c3)OCO4)o2)n[nH]1
4. O=C1/C=C/[C@@H](O)[C@@H]2C[C@@H](O)C[C@H]2/C=C/CCC[C@H](CCc2ccc3ncccc3c2)O1

# output
2.41 µM
> 100 µM
21.4 µM
9.05 µM

====

- Test system: MALME-3M melanoma
- measurement.notes: NCI tumour cell line growth inhibition, 48 h
Kindly state TGI for each of the entries shown.

>  <molecule.smiles>
O=C1CNC(=O)/C(=C/c2c[nH]c3ccccc23)N1

>  <val>
> 100 µM

$$$$
>  <molecule.smiles>
O=C(O)c1nc2ccc(Cl)cc2[nH]c1=O

>  <val>
> 100 µM

$$$$
>  <molecule.smiles>
CCOC(=O)/C(=C\NC(C)(C)C)c1nc2ccccc2[nH]1

>  <val>
39.4 µM

$$$$

List TGI for every entry below, keeping the order given.
1. c1csc(-c2nccc3c2[nH]c2ccccc23)c1
2. C=C1[C@H]2O[C@H]2[C@@H](OC(C)=O)[C@@]2(C)[C@@H](OC(C)=O)C[C@@H](OC(=O)CCC)[C@@](C)(O)[C@@H]2[C@@H](OC(C)=O)[C@]2(O)[C@@H](C)C(=O)O[C@H]2[C@H]1Cl

# output
47.2 µM
> 100 µM

====

- Tested on: OVCAR-4 ovarian
- measurement.notes: NCI tumour cell line growth inhibition, 48 h; in the data active means GI50 below about 0.43 µM; inactive means the rest
Pick from active, inactive when you respond.

# example entries with known answers
>  <molecule.smiles>
O=C1/C=C/[C@@H](O)[C@@H]2C[C@@H](O)C[C@H]2/C=C/CCC[C@H](CCc2ccc3ncccc3c2)O1

>  <group.label>
active

$$$$
>  <molecule.smiles>
Cc1cc(C(=O)/C=C/c2ccc[nH]2)ccc1-n1ccc(C(F)(F)F)n1

>  <group.label>
inactive

$$$$
>  <molecule.smiles>
Nc1ccccc1C#C/C=C\C#CC#C/C=C\C#Cc1ccccc1N

>  <group.label>
inactive

$$$$

# input Name the outcome recorded for `Nc1nonc1-c1nc2ccccc2n1Cc1ccc(F)cc1` in the assay.
# output inactive

# input Name the outcome recorded for `CC(C)(C)OC(=O)NCCCCn1c2c(c3ccccc3c1=O)C(=O)c1ccccc1-2` in the assay.
# output inactive

# input Name the outcome recorded for `C/C=C/C/C=C/[C@H](C)C[C@H](O)[C@@H]1C[C@@H]2O[C@H]2/C=C/[C@@H]2OC(C)(C)O[C@H]2/C=C/C[C@H](C)CC(=O)O1` in the assay.
# output inactive

# input Name the outcome recorded for `O=C(CSCC(=O)N/N=C/c1ccccc1O)N/N=C\c1ccccc1O` in the assay.
# output inactive

# input Name the outcome recorded for `Cc1c(Cl)c(=O)oc2cc(OC/C=C3\CCC(=O)O3)ccc12` in the assay.
# output inactive

# input Name the outcome recorded for `CC[C@@]1(OC(=O)CN(C)C)C(=O)OCc2c1cc1n(c2=O)Cc2cc3c(N)cccc3nc2-1` in the assay.
# output inactive
